tgt: human CaMKIIδ (Homo sapiens, UniProt Q13557)
Construct: Full-length, glutathione-S-transferase(GST)-tagged, human CaMKIIδ was purchased from Carna Biosciences; purchased Carna Biosciences (CaMKIIδ); Wako Pure Chemical Industries (calmodulin) 02-111
protocol_text: Evaluation of in vitro CaMKII inhibitory activity (binding assay, TR-FRET)
measurement_parameters: human CaMKIIδ, TR-FRET binding assay; class symbols A/B/C; read-out: Act (CaMKII inhibitory activity, binding assay)

>  <smiles_notation>
C[C@@H](Cn1nnnc1N)Oc1cccc(-c2ccn3ncc(-c4cccs4)c3n2)c1

>  <IC50>
< 0.01 µM

$$$$
>  <smiles_notation>
C[C@@H](Cn1cnnn1)Oc1cc(-c2ccn3ncc(-c4ccncc4)c3n2)ccc1F

>  <IC50>
< 0.01 µM

$$$$
>  <smiles_notation>
CC(=O)N1CCC(NC(=O)c2cccc(-c3cnn4ccc(-c5cccc(O[C@@H](C)Cn6cnnn6)c5)nc34)c2)CC1

>  <IC50>
< 0.01 µM

$$$$
>  <smiles_notation>
C[C@@H](Cn1cnnn1)Oc1cccc(-c2ccn3ncc(-c4cccc(C(=O)NS(=O)(=O)C5CC5)c4)c3n2)c1

>  <IC50>
< 0.01 µM

$$$$
>  <smiles_notation>
[2H]C([2H])([2H])Oc1ccnc(-c2cnc3ccc(-c4ccc(F)c(O[C@@H](C)Cn5cnnn5)c4)nn23)c1C#N

>  <IC50>
< 0.01 µM

$$$$
>  <smiles_notation>
C[C@@H](Cn1cnnn1)Oc1cc(-c2ccc3ncc(-c4cccs4)n3c2)ccc1F

>  <IC50>
0.01 to 0.1 µM

$$$$
>  <smiles_notation>
C[C@@H](Cn1cnnn1)Oc1cc(-c2ccn3ncc(-c4cc[nH]n4)c3n2)ccc1F

>  <IC50>
< 0.01 µM

$$$$
>  <smiles_notation>
CC(=O)N(C)CCOc1cccc(-c2cnc3ccc(-c4ccc(F)c(O[C@@H](C)Cn5cnnn5)c4)nn23)c1C#N

>  <IC50>
< 0.01 µM

$$$$
>  <smiles_notation>
CC(=O)N1CCN(c2ccc(-c3cnn4ccc(-c5ccc(F)c(O[C@@H](C)Cn6cnnn6)c5)nc34)cc2)CC1

>  <IC50>
0.01 to 0.1 µM

$$$$
>  <smiles_notation>
C[C@@H](Cn1cnnn1)Oc1cc(-c2ccn3ncc(-c4cccc(C(F)F)c4)c3n2)ccc1F

>  <IC50>
< 0.01 µM

$$$$
>  <smiles_notation>
COc1ncccc1-n1cnc2ccc(-c3ccc(F)c(O[C@@H](C)Cn4cnnn4)c3)nc21

>  <IC50>
0.01 to 0.1 µM

$$$$
>  <smiles_notation>
C[C@@H](Cn1cnnn1)Oc1cc(-c2ccc3ncc(-c4cccc(OCCN5CCCC5=O)c4C#N)n3n2)ccc1F

>  <IC50>
< 0.01 µM

$$$$
>  <smiles_notation>
CC(=O)NCCNC(=O)c1cccc(-c2cnn3ccc(-c4cccc(O[C@@H](C)Cn5cnnn5)c4)nc23)c1

>  <IC50>
< 0.01 µM

$$$$
>  <smiles_notation>
C[C@@H](Cn1cnnn1)Oc1cc(-c2ccc3ncc(-c4cc(C#N)cn(C)c4=O)n3n2)ccc1F

>  <IC50>
< 0.01 µM

$$$$
>  <smiles_notation>
C[C@@H](Cn1cnnn1)Oc1cc(-c2ccn3ncc(-c4ccccc4C#N)c3n2)ccc1F

>  <IC50>
< 0.01 µM

$$$$

---

tgt: human CaMKIIδ (Homo sapiens)
Construct: Full-length, glutathione-S-transferase(GST)-tagged, human CaMKIIδ was purchased from Carna Biosciences; purchased Carna Biosciences (CaMKIIδ); Wako Pure Chemical Industries (calmodulin) 02-111
protocol_text: Evaluation of in vitro CaMKII inhibitory activity (binding assay, TR-FRET)
measurement_parameters: human CaMKIIδ, TR-FRET binding assay; class symbols A/B/C; read-out: Act (CaMKII inhibitory activity, binding assay)
pIC50: −log10 of the molar value.

>  <smiles_notation>
COCCN1C(=O)c2cccc(-n3cnc4ccc(-c5ccc(F)c(O[C@@H](C)Cn6cnnn6)c5)nc43)c2C1=O

>  <tgt>
human CaMKIIδ (Homo sapiens)

>  <pIC50>
< 7.00

$$$$
>  <smiles_notation>
C[C@@H](Cn1cnnn1)Oc1cc(-c2ccn3ncc(-c4ccccc4C(F)(F)F)c3n2)ccc1F

>  <tgt>
human CaMKIIδ (Homo sapiens)

>  <pIC50>
< 7.00

$$$$
>  <smiles_notation>
C[C@@H](Cn1cncn1)Oc1cccc(-c2ccn3ncc(-c4cccs4)c3n2)c1

>  <tgt>
human CaMKIIδ (Homo sapiens)

>  <pIC50>
> 8.00

$$$$
>  <smiles_notation>
C[C@@H](Cn1cnnn1)Oc1cc(-c2ccn3ncc(-c4ccsc4)c3n2)ccc1F

>  <tgt>
human CaMKIIδ (Homo sapiens)

>  <pIC50>
> 8.00

$$$$
>  <smiles_notation>
C[C@@H](Cn1cnnn1)Oc1cccc(-c2ccn3ncc(-c4cccc(C(=O)NCC(C)(C)C)c4)c3n2)c1

>  <tgt>
human CaMKIIδ (Homo sapiens)

>  <pIC50>
> 8.00

$$$$
>  <smiles_notation>
C[C@@H](Cn1cnnn1)Oc1cc(-c2ccc3ncc(-c4cccc(OCCOCCN(C)C)c4C#N)n3n2)ccc1F

>  <tgt>
human CaMKIIδ (Homo sapiens)

>  <pIC50>
> 8.00

$$$$
>  <smiles_notation>
C[C@@H](Cn1cnnn1)Oc1cccc(-c2ccn3ncc(-c4cccc(C(=O)NCCCCO)c4)c3n2)c1

>  <tgt>
human CaMKIIδ (Homo sapiens)

>  <pIC50>
> 8.00

$$$$

---

tgt: human CaMKIIδ (Homo sapiens, UniProt Q13557)
Construct: Full-length, glutathione-S-transferase(GST)-tagged, human CaMKIIδ was purchased from Carna Biosciences; purchased Carna Biosciences (CaMKIIδ); Wako Pure Chemical Industries (calmodulin) 02-111
protocol_text: Evaluation of in vitro CaMKII inhibitory activity (binding assay, TR-FRET)
measurement_parameters: in vitro CaMKII inhibitory activity (binding assay), human CaMKIIδ; read-out: Act
Reported IC50 values are given for each entry in this list.
parameter: IC50

>  <compound>
C[C@@H](Cn1cnnn1)Oc1cccc(-c2ccc3ncc(-c4c(F)ccc(F)c4C#N)n3n2)n1 [compound 423]

>  <parameter>
IC50

>  <reported_measurement>
< 10 nM

$$$$
>  <compound>
C[C@@H](Cn1cnnn1)Oc1cc(-c2ccc3ncc(-c4ccc(=O)n(C)c4C#N)n3n2)ccc1F [compound 256]

>  <parameter>
IC50

>  <reported_measurement>
> 100 nM

$$$$
>  <compound>
CCc1ccc(C#N)c(-c2cnc3ccc(-c4cccc(O[C@@H](C)Cn5cnnn5)c4)nn23)n1 [compound 371]

>  <parameter>
IC50

>  <reported_measurement>
< 10 nM

$$$$
>  <compound>
C[C@@H](Cn1cnnn1)Oc1cccc(-c2ccc3ncc(-c4ccn(C)c(=O)c4C#N)n3n2)c1 [compound 259]

>  <parameter>
IC50

>  <reported_measurement>
< 10 nM

$$$$
>  <compound>
C[C@@H](Cn1cnnn1)Oc1cccc(-c2ccc3ncc(-c4nc(C(F)F)ccc4C#N)n3n2)c1 [compound 388]

>  <parameter>
IC50

>  <reported_measurement>
< 10 nM

$$$$
>  <compound>
COc1ccnc(-c2cnn3ccc(-c4ccc(F)c(O[C@@H](C)Cn5cnnn5)c4)nc23)c1C#N [compound 437]

>  <parameter>
IC50

>  <reported_measurement>
< 10 nM

$$$$
>  <compound>
C[C@@H](Cn1cnnn1)Oc1cccc(-c2ccc3ncc(-c4nccc(N5CCC5)c4C#N)n3n2)c1 [compound 370]

>  <parameter>
IC50

>  <reported_measurement>
10 to 100 nM

$$$$

---

tgt: human CaMKIIδ (Homo sapiens, UniProt Q13557)
Construct: Full-length, glutathione-S-transferase(GST)-tagged, human CaMKIIδ was purchased from Carna Biosciences; purchased Carna Biosciences (CaMKIIδ); Wako Pure Chemical Industries (calmodulin) 02-111
protocol_text: Evaluation of in vitro CaMKII inhibitory activity (binding assay, TR-FRET)
measurement_parameters: in vitro CaMKII inhibitory activity (binding assay), human CaMKIIδ; read-out: Act

>  <molecule>
C[C@@H](Cn1cnnn1)Oc1cccc(-c2ccc3ncc(-c4ncncc4C#N)n3n2)c1 [compound 273]

>  <IC50>
10 to 100 nM

$$$$
>  <molecule>
CC(=O)c1cccc(-c2cnc3ccc(-c4cccc(O[C@@H](C)Cn5cnnn5)c4)nn23)c1C#N [Example 426]

>  <IC50>
< 10 nM

$$$$
>  <molecule>
COc1cc(F)c(C#N)c(-n2cnc3ccc(-c4cccc(O[C@@H](C)Cn5cnnn5)n4)nc32)c1 [compound 424]

>  <IC50>
< 10 nM

$$$$
>  <molecule>
COc1ncc(C)cc1-c1cnc2ccc(-c3cccc(O[C@@H](C)Cn4cnnn4)c3)nn12 [compound 327]

>  <IC50>
< 10 nM

$$$$
>  <molecule>
C[C@@H](Cn1cnnn1)Oc1cncc(-c2ccc3ncn(-c4cc(F)ccc4C#N)c3n2)c1 [compound 316]

>  <IC50>
< 10 nM

$$$$
>  <molecule>
C[C@@H](Cn1cnnn1)Oc1cccc(-c2ccc3ncc(-c4nccc(N(C)CC(F)F)c4C#N)n3n2)c1 [compound 376]

>  <IC50>
10 to 100 nM

$$$$
>  <molecule>
COc1cnc(C#N)c(-c2cnc3ccc(-c4cccc(O[C@@H](C)Cn5cnnn5)c4)nn23)n1 [compound 285]

>  <IC50>
< 10 nM

$$$$
>  <molecule>
C[C@@H](Cn1cnnn1)Oc1cc(-c2ccc3ncc(-c4nccnc4C#N)n3n2)ccc1F [compound 290]

>  <IC50>
< 10 nM

$$$$
>  <molecule>
C[C@@H](Cn1cnnn1)Oc1cccc(-c2ccc3ncc(-c4cccc(C(C)(F)F)c4C#N)n3n2)c1 [Example 427]

>  <IC50>
< 10 nM

$$$$
>  <molecule>
C[C@@H](Cn1cnnn1)Oc1cc(-c2ccn3ncc(-c4nccnc4C#N)c3n2)ccc1F [compound 294]

>  <IC50>
< 10 nM

$$$$
>  <molecule>
COc1ccnc(-c2cnc3ccc(-c4cncc(O[C@@H](C)Cn5cnnn5)n4)nn23)c1C#N [compound 429]

>  <IC50>
> 100 nM

$$$$
>  <molecule>
C[C@@H](Cn1cnnn1)Oc1cccc(-c2ccc3ncc(-c4cnccc4C#N)n3n2)n1 [compound 415]

>  <IC50>
< 10 nM

$$$$
>  <molecule>
COc1cc(F)cc(-c2cnc3ccc(-c4cc(O[C@@H](C)Cn5cnnn5)ccn4)nn23)c1C#N [compound 438]

>  <IC50>
< 10 nM

$$$$
>  <molecule>
C[C@@H](Cn1cnnn1)Oc1cccc(-c2ccc3ncc(-c4cnccn4)n3n2)c1 [compound 283]

>  <IC50>
< 10 nM

$$$$
>  <molecule>
C[C@@H](Cn1cnnn1)Oc1cc(-c2ccn3ncc(-c4ncccc4C#N)c3n2)ccc1F [compound 295]

>  <IC50>
< 10 nM

$$$$
>  <molecule>
Cc1cnc(C#N)c(-c2cnc3ccc(-c4cccc(O[C@@H](C)Cn5cnnn5)c4)nn23)n1 [compound 277]

>  <IC50>
< 10 nM

$$$$
>  <molecule>
Cc1c[nH]c(=O)c(-c2cnc3ccc(-c4cccc(O[C@@H](C)Cn5cnnn5)c4)nn23)c1 [compound 329]

>  <IC50>
< 10 nM

$$$$
>  <molecule>
C[C@@H](Cn1cnnn1)Oc1cccc(-c2ccc3ncc(-c4nc(N(C)C)ccc4C#N)n3n2)c1 [compound 350]

>  <IC50>
10 to 100 nM

$$$$
>  <molecule>
CNc1ccnc(-c2cnc3ccc(-c4cccc(O[C@@H](C)Cn5cnnn5)c4)nn23)c1C#N [Example 358]

>  <IC50>
< 10 nM

$$$$
>  <molecule>
C[C@@H](Cn1cnnn1)Oc1cccc(-c2ccc3ncc(-c4cccn(CC(F)F)c4=O)n3n2)c1 [compound 340]

>  <IC50>
< 10 nM

$$$$
>  <molecule>
C[C@@H](Cn1cnnn1)Oc1cccc(-c2ccc3ncc(-c4nccc(NCC(F)(F)F)c4C#N)n3n2)c1 [compound 369]

>  <IC50>
10 to 100 nM

$$$$
>  <molecule>
C[C@@H](Cn1cnnn1)Oc1cccc(-c2ccc3ncc(-c4ccccc4CN=S(C)(C)=O)n3n2)c1 [compound 306]

>  <IC50>
10 to 100 nM

$$$$
>  <molecule>
C[C@@H](Cn1cnnn1)Oc1cccc(-c2ccc3ncn(-c4cccc(C(F)F)c4C#N)c3n2)n1 [compound 397]

>  <IC50>
> 100 nM

$$$$
>  <molecule>
C[C@@H](Cn1cnnn1)Oc1cccc(-c2ccc3ncc(-c4cc(F)cn(CC(F)(F)F)c4=O)n3n2)c1 [compound 339]

>  <IC50>
< 10 nM

$$$$
>  <molecule>
C[C@@H](Cn1cnnn1)Oc1cccc(-c2ccc3ncc(-c4nccc(N5CCCC5)c4C#N)n3n2)c1 [compound 363]

>  <IC50>
10 to 100 nM

$$$$
>  <molecule>
C[C@@H](Cn1cnnn1)Oc1cccc(-c2ccc3ncc(-c4cc(F)cnc4C#N)n3n2)c1 [compound 434]

>  <IC50>
< 10 nM

$$$$
>  <molecule>
C[C@@H](Cn1cnnn1)Oc1cccc(-c2ccc3ncc(-c4ncnc(N)c4C#N)n3n2)c1 [compound 394]

>  <IC50>
10 to 100 nM

$$$$
>  <molecule>
COc1cnc(-c2cnc3ccc(-c4cccc(O[C@@H](C)Cn5cnnn5)c4)nn23)c(C#N)c1 [compound 281]

>  <IC50>
< 10 nM

$$$$
>  <molecule>
C[C@@H](Cn1cnnn1)Oc1cccc(-c2ccc3ncn(-c4cc(F)cc(OC(F)F)c4C#N)c3n2)n1 [compound 405]

>  <IC50>
< 10 nM

$$$$
>  <molecule>
C[C@@H](Cn1cnnn1)Oc1cccc(-c2ccc3ncc(-c4cnccc4C#N)n3n2)c1 [Example 251]

>  <IC50>
< 10 nM

$$$$

Source listed as patent US12528816B2.
